test: Compound was evaluated for terminal half life in rat
Format: ADME, organism-based
run conditions: in vivo
assay readout: half-life (h)

COc1ccc(NS(=O)(=O)C(F)(F)F)cc1C[C@@H]1COc2ccc(OCc3ccc4ccc(Cl)cc4n3)cc2[C@@H]1O	0.8
COc1ccc(NS(=O)(=O)C(F)(F)F)cc1C[C@@H]1COc2ccc(OCc3nc4cc(F)c(F)cc4s3)cc2[C@@H]1O	8.8

###

test: Compound was evaluated for terminal half life in monkey
Format: ADME
run conditions: cercopithecidae, in vivo
assay readout: half-life (min)

COc1ccc(NS(=O)(=O)C(F)(F)F)cc1C[C@@H]1COc2ccc(OCc3ccc4ccc(Cl)cc4n3)cc2[C@@H]1O	126
COc1ccc(NS(=O)(=O)C(F)(F)F)cc1C[C@@H]1COc2ccc(OCc3nc4cc(F)c(F)cc4s3)cc2[C@@H]1O	564
